- System: CCRIS mutagenicity, Ames/micronucleus/aberration tests
- Run Description: CCRIS mutagenicity studies
- Recorded Conditions: Test System: AMES SALMONELLA TYPHIMURIUM; Strain/Indicator: TA98; Metabolic Activation: RAT, LIVER, S-9, AROCLOR 1254; Method: SPOT TEST
The source made the active and inactive calls. The rule behind the calls is not given here.
Metric Name: mutagenic call

# Molecule, Metric Name, Reported
measured = [
    ("C=CC(C)(C)c1cc2cc3c(cc2oc1=O)OC(C(C)(C)O)C3 (centres undefined)", "mutagenic call", "inactive; negative"),
    ("CC(C)(O)[C@H]1Cc2cc3ccc(=O)oc3cc2O1", "mutagenic call", "active; positive"),
    ("CC1(C)O[C@H]1COc1c2ccoc2cc2oc(=O)ccc12", "mutagenic call", "inactive; negative"),
    ("CC(C)=CCOc1c2occc2cc2ccc(=O)oc12", "mutagenic call", "active; positive"),
]

----------
- Tested on: CCRIS mutagenicity, Ames/micronucleus/aberration tests
- Run Description: CCRIS mutagenicity studies
- Recorded Conditions: Test System: AMES SALMONELLA TYPHIMURIUM; Strain/Indicator: TA98; Metabolic Activation: RAT, LIVER, S-9, PHENOBARBITAL; Method: PREINCUBATION
The source made the active and inactive calls. How the calls were made is not given here.
The categories you may choose from are active, inactive

INPUT: Recorded test call requested for `Oc1ccc(O)cc1`
OUTPUT: active

INPUT: Recorded test call requested for `O=S(=O)(O)c1ccc(N=Nc2c(O)ccc3ccccc23)cc1`
OUTPUT: inactive

INPUT: Recorded test call requested for `Oc1ccccc1O`
OUTPUT: inactive

INPUT: Recorded test call requested for `Oc1ccc(O)c(O)c1`
OUTPUT: inactive

INPUT: Recorded test call requested for O=S1OCC2C(CO1)C1(Cl)C(Cl)=C(Cl)C2(Cl)C1(Cl)Cl (stereo not given)
OUTPUT: inactive

----------
- System: CCRIS mutagenicity, Ames/micronucleus/aberration tests
- Run Description: CCRIS mutagenicity studies
- Recorded Conditions: Test System: Ames Salmonella typhimurium; Strain/Indicator: TA98; Metabolic Activation: None; Method: Preincubation
The source made the active and inactive calls. The rule behind the calls is not given here.
The categories you may choose from are active, inactive

INPUT: Recorded test call requested for `Nc1ccc(O)c2c1C(=O)C=CC2=O`
OUTPUT: active

INPUT: Recorded test call requested for CC(O)CN (stereo unspecified)
OUTPUT: inactive

INPUT: Recorded test call requested for `CC(C)N=C=NC(C)C`
OUTPUT: inactive

INPUT: Recorded test call requested for `CCCCCCCC/C=C\CCCCCCCC(N)=O`
OUTPUT: inactive

INPUT: Recorded test call requested for `CCN(CC)c1ccc2nc3ccc(=[N+](CC)CC)cc-3oc2c1`
OUTPUT: inactive

INPUT: Recorded test call requested for `FC(F)(Br)C(F)(F)I`
OUTPUT: inactive

INPUT: Recorded test call requested for `CC(=NC#N)N(C)Cc1ccc(Cl)nc1`
OUTPUT: inactive

INPUT: Recorded test call requested for `CCCCNC(=O)c1cc(N)ccc1Oc1ccc(C)cc1`
OUTPUT: inactive

INPUT: Recorded test call requested for `O=Cc1ccc(CO)o1`
OUTPUT: inactive

INPUT: Recorded test call requested for `C`
OUTPUT: inactive

INPUT: Recorded test call requested for `Clc1cc2c(cc1Cl)Oc1cc(Cl)c(Cl)cc1O2`
OUTPUT: inactive

INPUT: Recorded test call requested for `CN(CCCl)c1ccc(/C=C/C2=[N+](C)c3ccccc3C2(C)C)cc1`
OUTPUT: inactive

INPUT: Recorded test call requested for `CC(=O)/C=C/C1=C(C)CCCC1(C)C`
OUTPUT: inactive

INPUT: Recorded test call requested for `O=C1C(Cl)=C(Cl)C(=O)C(Cl)=C1Cl`
OUTPUT: inactive

INPUT: Recorded test call requested for `Cc1ccccc1O`
OUTPUT: inactive

INPUT: Recorded test call requested for `Oc1ccccc1O`
OUTPUT: inactive

----------
- Tested on: CCRIS mutagenicity, Ames/micronucleus/aberration tests
- Run Description: CCRIS mutagenicity studies
- Recorded Conditions: Test System: AMES SALMONELLA TYPHIMURIUM; Strain/Indicator: TA1537; Metabolic Activation: NONE; Method: PREINCUBATION
Calls of active or inactive are those of the source. How the calls were made is not given here.
The categories you may choose from are active, inactive

INPUT: Recorded test call requested for `CCC[N+](=O)[O-]`
OUTPUT: inactive

INPUT: Recorded test call requested for `CC1(C)SSC[C@@H](C(=O)O)NC1=O`
OUTPUT: inactive

INPUT: Recorded test call requested for `CC(=O)OCc1ccco1`
OUTPUT: inactive

INPUT: Recorded test call requested for `c1ccc2cc3ccccc3cc2c1`
OUTPUT: inactive

INPUT: Recorded test call requested for `O=C(O)/C=C/c1cccc([N+](=O)[O-])c1`
OUTPUT: inactive

INPUT: Recorded test call requested for `[Cl][Pd][Cl]`
OUTPUT: inactive

INPUT: Recorded test call requested for `c1ccoc1`
OUTPUT: inactive

INPUT: Recorded test call requested for `C[C@]12CC[C@@H]3c4ccc(O)cc4CC[C@H]3[C@@]13CC[C@]2(O)[C@H](O)C3`
OUTPUT: inactive

INPUT: Recorded test call requested for `CCCCOc1ccc(C=Nc2ccc(CC)cc2)cc1`
OUTPUT: inactive

INPUT: Recorded test call requested for `Oc1cc(O)c2cc(O)c(-c3cc(O)c(O)c(O)c3)[o+]c2c1`
OUTPUT: inactive

INPUT: Recorded test call requested for CN(C)CCC(c1ccccc1)c1ccccn1 (stereo not given)
OUTPUT: inactive

INPUT: Recorded test call requested for `O=P(OC(CCl)CCl)(OC(CCl)CCl)OC(CCl)CCl`
OUTPUT: inactive

INPUT: Recorded test call requested for O=S1OCC2C(CO1)C1(Cl)C(Cl)=C(Cl)C2(Cl)C1(Cl)Cl (stereo not given)
OUTPUT: inactive

INPUT: Recorded test call requested for `O=C1CCCO1`
OUTPUT: inactive

INPUT: Recorded test call requested for `C1COCCN1`
OUTPUT: inactive

INPUT: Recorded test call requested for CC(Br)CBr (stereo not given)
OUTPUT: inactive

INPUT: Recorded test call requested for `Cc1c(N=C=O)cccc1N=C=O`
OUTPUT: inactive

INPUT: Recorded test call requested for `Oc1ccccc1O`
OUTPUT: inactive

INPUT: Recorded test call requested for `Nc1c2ccccc2nc2ccccc12`
OUTPUT: active

INPUT: Recorded test call requested for `[Cl][Ti]([Cl])[Cl]`
OUTPUT: inactive

INPUT: Recorded test call requested for `O=c1[nH]c(=O)n([C@H]2C[C@H](O)[C@@H](CO)O2)cc1CCCCl`
OUTPUT: inactive

INPUT: Recorded test call requested for `Nc1nc(N)nc(-c2ccccc2)n1`
OUTPUT: inactive

INPUT: Recorded test call requested for `O=C1c2ccccc2C(=O)c2c(O)ccc(O)c21`
OUTPUT: active

INPUT: Recorded test call requested for `N.N.O=C([O-])C1(C(=O)[O-])CCC1.[Pt+4]`
OUTPUT: inactive

INPUT: Recorded test call requested for `O=C1[O][Bi][O]c2ccccc21`
OUTPUT: inactive

INPUT: Recorded test call requested for `O=C(O)c1ccccc1`
OUTPUT: inactive

INPUT: Recorded test call requested for `O=C1c2cccc(O)c2C(=O)c2c(O)cccc21`
OUTPUT: active

INPUT: Recorded test call requested for `Nc1nc(N)nc(N)n1`
OUTPUT: inactive

INPUT: Recorded test call requested for `C[C@]1(Cn2ccnn2)[C@H](C(=O)O)N2C(=O)C[C@H]2S1(=O)=O`
OUTPUT: inactive

INPUT: Recorded test call requested for `CCCBr`
OUTPUT: inactive

----------
- Tested on: CCRIS mutagenicity, Ames/micronucleus/aberration tests
- Run Description: CCRIS mutagenicity studies
- Recorded Conditions: Test System: AMES SALMONELLA TYPHIMURIUM; Strain/Indicator: TA100; Metabolic Activation: NONE; Method: FLUCTUATION TEST
Calls of active or inactive are those of the source. How the calls were made is not given here.
The categories you may choose from are YES = active, NO = inactive

INPUT: Recorded test call requested for `Oc1ccccc1O`
OUTPUT: YES

INPUT: Recorded test call requested for `Oc1ccc(O)c(O)c1`
OUTPUT: NO

INPUT: Recorded test call requested for `C[C@H](CCC(=O)O)[C@H]1CC[C@H]2[C@@H]3CC[C@@H]4C[C@H](O)CC[C@]4(C)[C@H]3CC[C@]12C`
OUTPUT: NO

INPUT: Recorded test call requested for `N#CCCl`
OUTPUT: NO

INPUT: Recorded test call requested for `CC(=O)C(Cl)(Cl)Cl`
OUTPUT: YES

----------
- System: CCRIS mutagenicity, Ames/micronucleus/aberration tests
- Run Description: CCRIS mutagenicity studies
- Recorded Conditions: Test System: AMES SALMONELLA TYPHIMURIUM; Strain/Indicator: TA98; Metabolic Activation: NONE; Method: STANDARD PLATE
Activity calls are given as the source filed them. The rule behind the calls is not given here.
The categories you may choose from are T = active, F = inactive

INPUT: Recorded test call requested for `c1ccc2cc3c(ccc4ccncc43)cc2c1`
OUTPUT: F

INPUT: Recorded test call requested for `CCCOC(=O)c1cc(O)c(O)c(O)c1`
OUTPUT: F

INPUT: Recorded test call requested for `O=C1C=Cc2ccc3c(ccc4ccccc43)c2C1=O`
OUTPUT: F

INPUT: Recorded test call requested for `Oc1ccc(O)cc1`
OUTPUT: F

INPUT: Recorded test call requested for `COC1=CC(=O)c2c(ncc3c2[nH]c2ccncc23)C1=O`
OUTPUT: T

INPUT: Recorded test call requested for `CC1=C(/C=C/C(C)=C/C=C/C(C)=C/C=C/C=C(C)/C=C/C=C(C)/C=C/C2=C(C)CCCC2(C)C)C(C)(C)CCC1`
OUTPUT: F

INPUT: Recorded test call requested for `Oc1cc2ccccc2c2ccc3ccccc3c12`
OUTPUT: F

INPUT: Recorded test call requested for `C=CCc1ccc2c(c1)OCO2`
OUTPUT: F

INPUT: Recorded test call requested for `O=NN1CCSC1`
OUTPUT: F

INPUT: Recorded test call requested for `C=Cc1ccc(N)cc1`
OUTPUT: F

INPUT: Recorded test call requested for `CC(=O)O[C@H]1C(=O)[C@@]2(C)[C@H]([C@H](OC(=O)c3ccccc3)[C@]3(O)C[C@H](OC(=O)[C@H](O)[C@@H](NC(=O)c4ccccc4)c4ccccc4)C(C)=C1C3(C)C)[C@]1(OC(C)=O)CO[C@@H]1C[C@@H]2O`
OUTPUT: F

INPUT: Recorded test call requested for `Nc1ccn([C@@H]2C=C(CO)[C@@H](O)[C@H]2O)c(=O)n1`
OUTPUT: F

INPUT: Recorded test call requested for `CC=C(C)C(=O)O[C@H]1[C@H](OC(C)=O)[C@]2(CO)[C@H](O)C[C@]3(C)C(=CC[C@@H]4[C@@]5(C)CC[C@@H](O[C@@H]6O[C@H](C(=O)O)[C@@H](O[C@@H]7O[C@H](CO)[C@@H](O)[C@H](O)[C@H]7O)[C@H](O)[C@H]6O[C@@H]6O[C@H](CO)[C@@H](O)[C@H](O)[C@H]6O)[C@](C)(CO)[C@@H]5CC[C@]43C)[C@@H]2CC1(C)C`
OUTPUT: F

INPUT: Recorded test call requested for `CCN(CC)c1ccc(N=Nc2ccc(N=Nc3c(S(=O)(=O)O)cc4ccc(N)cc4c3O)c(OCCO)c2)cc1`
OUTPUT: F

INPUT: Recorded test call requested for `O=C(NO)c1ccc(O)c(O)c1`
OUTPUT: F

INPUT: Recorded test call requested for `Nc1c(N=Nc2ccc(-c3ccc(NN=C4C=CC(=O)C=C4)cc3)cc2)c(S(=O)(=O)O)cc2c1C(=O)/C(=N/Nc1ccccc1)C(S(=O)(=O)O)=C2`
OUTPUT: F

INPUT: Recorded test call requested for C=C.CC(N)c1ccccc1.[Cl-].[Cl-].[Pt+2] (centres undefined)
OUTPUT: F

INPUT: Recorded test call requested for `COc1ccc(/C=C/c2ccc([N+](=O)[O-])cc2)cc1`
OUTPUT: T

INPUT: Recorded test call requested for `CCc1cc(-c2ccccc2)ccc1N`
OUTPUT: F

Source of measurements: PubChem BioAssay AID1259407
